Property: protein stability index; scope: individual sequences
System: Saccharomyces cerevisiae;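 also: PSI is a weighted mean of sequencing reads over stability bins, variants kept only with over 10 reads, mCherry proximal and sfGFP distal, peptide attached via GGGS linker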
Assay comment: protein stability index of tFT-peptide fusion (C-terminal peptide) (PSI (0-1 scale)); higher = more stable (slower turnover)
Condition description: genetic background: das1 deletion; temperature: 30 C

Some sequences with recorded protein stability index:
>>> endpoint_value("VLYSRFPPPLIA")
0.43
>>> endpoint_value("SRLVSRLGLYLS")
0.626
>>> endpoint_value("SLFFCIPIHSVF")
0.491
>>> endpoint_value("RFCRVERAILLR")
0.33

Prompt: Determine its reported protein stability index: EGLDVRILIQVI
Completion: 0.179

Prompt: Determine its reported protein stability index: FGGICFAVLLCR
Completion: 0.263

Prompt: Determine its reported protein stability index: CYSLLFVSVILF
Completion: 0.151

Prompt: Determine its reported protein stability index: FILCGFSVVLIG
Completion: 0.191

Prompt: Determine its reported protein stability index: CMLPWPILLCPF
Completion: 0.391
